System: Bifidobacterium longum
Experiment: Antibacterial activity against Bifidobacterium longum by CLSI M11-A6 agar dilution method
Assay type: functional
Measurement type: MIC50 (µg/mL)
Quick note: give the figure in µg/mL, leave out the unit.

CC(=O)NC[C@H]1CN(c2ccc(N3CCOCC3)c(F)c2)C(=O)O1 [LINEZOLID]; 1

Continue with the next compound.
Incoming: Value wanted: MIC50 (Bifidobacterium longum) of entry CCCCCCCCCC(=O)N[C@@H](Cc1c[nH]c2ccccc12)C(=O)N[C@H](CC(N)=O)C(=O)N[C@@H](CC(=O)O)C(=O)N[C@@H]1C(=O)NCC(=O)N[C@@H](CCCN)C(=O)N[C@@H](CC(=O)O)C(=O)N[C@H](C)C(=O)N[C@@H](CC(=O)O)C(=O)NCC(=O)N[C@H](CO)C(=O)N[C@@H]([C@H](C)CC(=O)O)C(=O)N[C@@H](CC(=O)c2ccccc2N)C(=O)O[C@@H]1C
Outgoing: 1
